target: LAT1 (Homo sapiens (Human), UniProt Q01650); assay: LAT1 uptake inhibition assay: [3H]-gabapentin competition uptake in LN229 cells; type: cell-based; conditions: [3H]-gabapentin uptake, Table 1, read-out: LAT1 inhibition IC50 (nM ± SE)
Sequence (Q01650 whole entry): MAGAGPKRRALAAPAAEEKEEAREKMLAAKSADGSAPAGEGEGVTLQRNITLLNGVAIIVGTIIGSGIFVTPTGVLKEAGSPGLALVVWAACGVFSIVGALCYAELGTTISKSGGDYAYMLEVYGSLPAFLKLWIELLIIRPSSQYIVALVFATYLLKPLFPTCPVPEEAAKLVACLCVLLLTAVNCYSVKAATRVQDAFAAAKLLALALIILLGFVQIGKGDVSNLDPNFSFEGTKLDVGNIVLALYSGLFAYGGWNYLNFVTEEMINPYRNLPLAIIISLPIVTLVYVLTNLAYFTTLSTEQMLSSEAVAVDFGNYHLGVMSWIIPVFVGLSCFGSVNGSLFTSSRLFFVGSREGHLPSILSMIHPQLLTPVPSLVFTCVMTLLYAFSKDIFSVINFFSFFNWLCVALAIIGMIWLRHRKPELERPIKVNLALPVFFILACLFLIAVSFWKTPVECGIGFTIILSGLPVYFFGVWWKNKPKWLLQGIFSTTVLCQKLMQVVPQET
Sequence (P08195 whole entry partner): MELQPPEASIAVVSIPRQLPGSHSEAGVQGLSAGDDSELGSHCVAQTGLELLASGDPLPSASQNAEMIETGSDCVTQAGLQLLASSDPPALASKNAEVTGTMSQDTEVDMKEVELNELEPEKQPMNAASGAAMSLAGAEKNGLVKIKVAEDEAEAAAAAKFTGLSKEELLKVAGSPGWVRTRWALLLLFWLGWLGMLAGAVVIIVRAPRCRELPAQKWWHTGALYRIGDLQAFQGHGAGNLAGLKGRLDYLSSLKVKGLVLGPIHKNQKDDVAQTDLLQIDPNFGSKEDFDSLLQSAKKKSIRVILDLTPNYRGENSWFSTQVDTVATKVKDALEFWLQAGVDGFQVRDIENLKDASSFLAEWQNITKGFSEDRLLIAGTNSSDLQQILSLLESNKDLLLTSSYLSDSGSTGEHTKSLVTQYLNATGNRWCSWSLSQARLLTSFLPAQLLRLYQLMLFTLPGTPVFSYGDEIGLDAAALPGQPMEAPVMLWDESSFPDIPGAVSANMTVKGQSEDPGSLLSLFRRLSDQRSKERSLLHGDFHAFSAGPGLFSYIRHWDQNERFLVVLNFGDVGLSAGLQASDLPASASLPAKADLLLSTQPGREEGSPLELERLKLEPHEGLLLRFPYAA
Where a name gives a salt, the structure may show the parent alone.
reported metric: IC50 (nM)

Sample records with IC50:
Cc1ccc(NS(=O)(=O)c2cccc(Br)c2)cc1C[C@H](N)C(=O)O = 40
Cc1ccc(S(=O)(=O)Nc2ccccc2)cc1C[C@H](N)C(=O)O [Compound 35, Hydrochloride] = 30
Cc1ccc(S(=O)(=O)Nc2ccc(Cl)cc2)cc1C[C@H](N)C(=O)O = 12
CC(C)c1ccc(NS(=O)(=O)c2cccc3c(N(C)C)cccc23)cc1C[C@H](N)C(=O)O = 50
Cc1ccc(S(=O)(=O)Nc2cccc3c(N(C)C)cccc23)cc1C[C@H](N)C(=O)O = 80

1. CCCCNS(=O)(=O)c1ccc(C)c(C[C@H](N)C(=O)O)c1
2. COc1ccc(NS(=O)(=O)c2ccc(C)c(C[C@H](N)C(=O)O)c2)cc1
Query: Would you let me know which has the greater IC50 value, 1 or 2 ? The response must carry the label of the picked entry.
Reply: 1
(1: 56 nM, 2: 10 nM)

---

molecular target: LAT1 (Homo sapiens (Human)); assay: LAT1 uptake inhibition assay: [3H]-gabapentin competition uptake in LN229 cells; type: cell-based; details: [3H]-gabapentin uptake, 15 min incubation in PBS, read-out: IC50, the concentration of test compound at which the [3H]-GP uptake was inhibited by 50%
reported metric: IC50

Sample records with IC50:
COc1cc(NS(=O)(=O)c2cccc3c(N(C)C)cccc23)ccc1C[C@H](N)C(=O)O = 1 to 10 µM
Cc1ccc(S(=O)(=O)Nc2ccc(S(=O)(=O)Nc3ccc(C)c(C[C@H](N)C(=O)O)c3)cc2)cc1 = 0.1 to 1 µM
N[C@@H](Cc1ccc(S(=O)(=O)Nc2ccc(Cl)cc2)cc1)C(=O)O = 1 to 10 µM

Please find the next compound below.
Documented IC50 of Cc1ccc(S(=O)(=O)Nc2ccc(Cl)c(Cl)c2)cc1C[C@H](N)C(=O)O : 0.1 to 1 µM

---

molecular target: LAT1 (Homo sapiens (Human), UniProt Q01650); test: LAT1 uptake inhibition assay: [3H]-gabapentin competition uptake in LN229 cells; assay type: cell-based; conditions: [3H]-gabapentin uptake, Table 1, read-out: LAT1 inhibition IC50 (nM ± SE)
reported metric: IC50 (nM)

Sample records with IC50:
CC(C)c1ccc(S(=O)(=O)Nc2ccc(Cl)cc2)cc1C[C@H](N)C(=O)O = 10
Cc1ccc(S(=O)(=O)Nc2ccc(-c3ccccc3)cc2)cc1C[C@H](N)C(=O)O = 25
Cc1ccc(NS(=O)(=O)c2ccccc2)cc1C[C@H](N)C(=O)O = 100
N[C@@H](Cc1cccc(S(=O)(=O)Nc2ccc(Cl)cc2)c1)C(=O)O = 80
Cc1ccc(S(=O)(=O)Nc2ccc(Br)cc2)cc1C[C@H](N)C(=O)O = 12

P. Cc1ccc(NS(=O)(=O)c2cccc(-c3ccccc3)c2)cc1C[C@H](N)C(=O)O
Q. Cc1ccc(S(=O)(=O)NC2CCCCC2)cc1C[C@H](N)C(=O)O
Query: Would you let me know which has the greater IC50 value, P or Q ? The response must carry the label of the picked entry.
Reply: Q

---

target: LAT1 (Homo sapiens (Human), UniProt Q01650); test: LAT1 uptake inhibition assay: [3H]-gabapentin competition uptake in LN229 cells; type: cell-based; settings: [3H]-gabapentin uptake, 15 min incubation in PBS, read-out: IC50, the concentration of test compound at which the [3H]-GP uptake was inhibited by 50%
Some compounds, each annotated with its measured IC50.

Sample records with IC50:
CNS(=O)(=O)c1cccc(C[C@H](N)C(=O)O)c1 = ≥ 10 µM
Cc1ccc(NS(=O)(=O)c2ccccc2)cc1C[C@H](N)C(=O)O = 0.02 to 0.1 µM
N[C@@H](Cc1cccc(S(=O)(=O)Nc2ccc(Cl)cc2)c1)C(=O)O = 0.02 to 0.1 µM
Cc1ccc(S(=O)(=O)Nc2ccc(-c3ccccc3)cc2)cc1C[C@H](N)C(=O)O = 0.02 to 0.1 µM

Please find the next compound below.
Here Cc1ccc(S(=O)(=O)N2CCC[C@@H]2C(=O)O)cc1C[C@H](N)C(=O)O was tested on LAT1 (Homo sapiens (Human), UniProt Q01650), and its IC50 came to ≥ 10 µM

---

biological target: LAT1 (Homo sapiens (Human)); experiment: LAT1 uptake inhibition assay: [3H]-gabapentin competition uptake in LN229 cells; format: cell-based; settings: [3H]-gabapentin uptake, Table 1, read-out: LAT1 inhibition IC50 (nM ± SE)
reported metric: IC50 (nM)

Cc1ccc(S(=O)(=O)Nc2cccc3ccccc23)cc1C[C@H](N)C(=O)O = 24

1. Cc1ccc(S(=O)(=O)NCc2ccccc2)cc1C[C@H](N)C(=O)O
2. Cc1ccc(S(=O)(=O)Nc2cccc(Br)c2)cc1C[C@H](N)C(=O)O
3. Cc1ccc(NS(=O)(=O)c2ccc(C(C)(C)C)cc2)cc1C[C@H](N)C(=O)O
Query: Number of compounds to sort: 3. Sort criterion: IC50, ascending. A complete answer lists every label in the requested sequence.
Reply: 2, 1, 3
